test: in vivo; conditions: female, BALB/c, mouse, ip, 25 mg/kg/day
MEASURE: concentration at 1 h (µM)
I only need the number, in µM, no unit after it.

Reported concentration at 1 h for CS(=O)(=O)Oc1ccc(Oc2ccc(S(=O)(=O)CC3CS3)cc2)cc1 (stereo not shown) [Compound 2] was 3.2

---

assay: in vivo; conditions: female, BALB/c, mouse, ip, 10 mg/kg/day
MEASURE: concentration at 1 h

Lab note: measured concentration at 1 h of CS(=O)(=O)Oc1ccc(Oc2ccc(S(=O)(=O)CC3CS3)cc2)cc1 (stereo not shown) [Compound 2] was < 1000 nM

---

assay: in vivo; settings: female, BALB/c, mouse, ip, 5 mg/kg/day
MEASURE: concentration at 1 h

Measured concentration at 1 h of CS(=O)(=O)Oc1ccc(Oc2ccc(S(=O)(=O)CC3CS3)cc2)cc1 (stereo not shown) : < 1000 nM
